Assay: Size (diameter) and PDI of lipid nanoparticles by Dynamic Light Scattering
Type: physicochemical
Conditions: lipid nanoparticles of the ionizable lipid; diluted with PBS to mRNA 1 μg/mL; DLS
MEASURED METRIC: PDI

Worked cases, PDI given:
MOLECULE	PDI
CCCCCCCCC(CCCCCC)C(=O)OCCCCCCN(CCCCCCOC(=O)C(CCCCCC)CCCCCCCC)CCc1ccc(N)nc1 (centres unmarked)	0.13
CCCCCCCCC(CCCCCC)C(=O)OCCCCCCN(CCCCCCOC(=O)C(CCCCCC)CCCCCCCC)CCCn1ccnc1C (centres unmarked)	0.08
CCCCCCCCC(CCCCCC)C(=O)OCCCCCCN(CCCCCCOC(=O)C(CCCCCC)CCCCCCCC)CCC1CCNCC1 (centres unmarked)	0.09

[1] CCCCCCCCC(CCCCCC)C(=O)OCCCCCCN(CCCCCCOC(=O)C(CCCCCC)CCCCCCCC)CCN1CCNCC1 (centres unmarked)
[2] CCCCCCCCC(CCCCCC)C(=O)OCCCCCCN(CCCCCCOC(=O)C(CCCCCC)CCCCCCCC)Cc1ccc(N)cc1 (centres unmarked)
Challenge: Hey, which is lower on measured PDI, 1 or 2 ? Your answer should be the label of the entry you select.
Response given: 1
(1: 0.12, 2: 0.18)

###

Experiment: Gene encapsulation efficiency, Quant-iT Ribogreen RNA Reagent and Kit
Assay type: physicochemical
Conditions: lipid nanoparticles, TE buffer vs 2% Triton-TE buffer
MEASURED METRIC: Gene encapsulation efficiency (%)

COMPOUND	Gene encapsulation efficiency / %
CCCCCCCCC(CCCCCC)C(=O)OCCCCCCN(CCCCCCOC(=O)C(CCCCCC)CCCCCCCC)CCCn1ccnc1C (centres unmarked) [Compound 5]	93.5
CCCCCCCCC(CCCCCC)C(=O)OCCCCCCN(CCCCCCOC(=O)C(CCCCCC)CCCCCCCC)Cc1ccc(N)cc1 (centres unmarked) [Compound 3]	93.8
CCCCCCCCC(CCCCCC)C(=O)OCCCCCCN(CCCCCCOC(=O)C(CCCCCC)CCCCCCCC)CCN1CCNCC1 (centres unmarked) [Compound 2]	94.9
CCCCCCCCC(CCCCCC)C(=O)OCCCCCCN(CCCCCCOC(=O)C(CCCCCC)CCCCCCCC)CCC1CCNCC1 (centres unmarked) [Compound 1]	99.7
CCCCCCCCC(CCCCCC)C(=O)OCCCCCCN(CCCCCCOC(=O)C(CCCCCC)CCCCCCCC)CCc1ccc(N)nc1 (centres unmarked) [Compound 4]	78.2

###

Experiment: Surface charge (zeta potential) of lipid nanoparticles
Type: physicochemical
Settings: diluted with PBS to mRNA 1 μg/mL
// values below are reported Surface Charge

Worked cases, Surface Charge given:
COMPOUND	MEASURED VALUE
CCCCCCCCC(CCCCCC)C(=O)OCCCCCCN(CCCCCCOC(=O)C(CCCCCC)CCCCCCCC)CCCn1ccnc1C (centres unmarked) [Compound 5]	+19.9 mV
CCCCCCCCC(CCCCCC)C(=O)OCCCCCCN(CCCCCCOC(=O)C(CCCCCC)CCCCCCCC)Cc1ccc(N)cc1 (centres unmarked) [Compound 3]	−1.4 mV

Challenge: Please give measured Surface Charge of the following entry: CCCCCCCCC(CCCCCC)C(=O)OCCCCCCN(CCCCCCOC(=O)C(CCCCCC)CCCCCCCC)CCN1CCNCC1 (centres unmarked) [Compound 2]
Response given: +28.1 mV

Challenge: Please give measured Surface Charge of the following entry: CCCCCCCCC(CCCCCC)C(=O)OCCCCCCN(CCCCCCOC(=O)C(CCCCCC)CCCCCCCC)CCc1ccc(N)nc1 (centres unmarked) [Compound 4]
Response given: +2.0 mV

Challenge: Please give measured Surface Charge of the following entry: CCCCCCCCC(CCCCCC)C(=O)OCCCCCCN(CCCCCCOC(=O)C(CCCCCC)CCCCCCCC)CCC1CCNCC1 (centres unmarked) [Compound 1]
Response given: +29.1 mV
